# Study target: TYK2 (Homo sapiens)
# Construct: 5 μl of catalytic domain recombinant Kinase enzyme+Tyr peptide substrate (Invitrogen, CA)
# Sequence (P29597 897-1176 limits assumed): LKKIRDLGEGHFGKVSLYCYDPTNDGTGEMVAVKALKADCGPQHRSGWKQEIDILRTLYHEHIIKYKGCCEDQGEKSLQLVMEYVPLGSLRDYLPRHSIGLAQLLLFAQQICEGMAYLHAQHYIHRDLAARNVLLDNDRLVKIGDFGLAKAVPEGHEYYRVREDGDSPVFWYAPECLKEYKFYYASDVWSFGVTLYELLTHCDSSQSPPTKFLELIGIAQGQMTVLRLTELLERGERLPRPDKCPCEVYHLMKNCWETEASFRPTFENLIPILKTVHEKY
# Experimental protocol: Z'-LYTE kinase assay TYK2
pIC50: −log10 of the molar value.
In this section we review reported pIC50 values for a set of molecules.

Consider the molecule shown here: CC(=O)N1CCN(c2ccc(Nc3cc(N[C@H]4CCc5ccccc54)c(C(N)=O)cn3)cc2)CC1 What is its recorded pIC50? 6.00 to 7.00

What measured pIC50 goes with Cc1cc(Nc2cc(NCc3cccc4ccsc34)c(C(N)=O)cn2)ccc1C(=O)N(C)C ? 6.00 to 7.00

Need pIC50 of Cc1cccc(Nc2cc(Nc3ccc(OCCN4CCCC4)cc3)ncc2C(N)=O)c1 , thanks. 6.00 to 7.00

Query (molecule): CCC(=O)N1CCC(c2ccc(Nc3cc(N[C@H](C)c4ccccc4)c(C(N)=O)cn3)cc2)CC1 ; field requested: pIC50 < 6.00

Fill in: pIC50 of NC(=O)c1cnc(Nc2cccc(OCCN3CCCC3)c2)cc1NCc1cccc(F)c1 is ___ < 6.00

// pIC50 lookup, key: NC(=O)c1cnc(Nc2cccc(N3CCOCC3)c2)cc1NCc1ccccc1 6.00 to 7.00

Request the reported pIC50 associated with NC(=O)c1cnc(Nc2ccc(N3CCCCC3=O)cc2)cc1NCc1ccccc1F 6.00 to 7.00
